Tested on: NCI-H1792
Assay: relative viability (nuclei count vs DMSO), 5 days (fraction); higher = more cells survive
Conditions: first compound 4 µM
Below: a set of entries, each annotated with reported relative viability.

Here are 2 molecules together with their reported answers.
molecule	relative viability
Cc1sc2c(c1C)C(c1ccc(Cl)cc1)=N[C@@H](CC(=O)OC(C)(C)C)c1nnc(C)n1-2 [JQ1] + N=C(N)NC(=N)NCCc1ccccc1 [Phenformin] (partner 250 µM)	0.0948
Cc1sc2c(c1C)C(c1ccc(Cl)cc1)=N[C@@H](CC(=O)OC(C)(C)C)c1nnc(C)n1-2 [JQ1] + CC(C)C[C@H](NC(=O)[C@H](Cc1ccccc1)NC(=O)c1cnccn1)B(O)O [Bortezomib] (partner 0.002 µM)	0.456

API: the following record is the query input.
Exercise: What does the data say about its relative viability? Entry: Cc1sc2c(c1C)C(c1ccc(Cl)cc1)=N[C@@H](CC(=O)OC(C)(C)C)c1nnc(C)n1-2 [JQ1] + O=C(c1cc(Cc2n[nH]c(=O)c3ccccc23)ccc1F)N1CCN(C(=O)C2CC2)CC1 [Olaparib] (partner 8 µM)
Solution: 0.0406
